- Tested on: MDA-N
- assay.info: NCI tumour cell line growth inhibition, 48 h
# TGI annotations
# unit: µM | format: bare number

* Cc1cc(N(CCC#N)CCC#N)ccc1/C=N/NC(=O)c1ccccc1 | 10.6

Below: the item to evaluate.
So, `S=C(S)N1CCCCC1` ? Its TGI was 46.6

###

- Tested on: UACC-257 melanoma
- assay.info: NCI tumour cell line growth inhibition, 48 h
# TGI annotations

The following compounds have reported results that may help.
* CCCCCCCCCCCCCCCCCCOP(=O)([O-])OCC[N+](C)(C)C | 25.6 µM
* CSc1nc(NC2OC(COC(C)=O)C(OC(C)=O)C(OC(C)=O)C2OC(C)=O)c(N=CC=Nc2c(NC3OC(COC(C)=O)C(OC(C)=O)C(OC(C)=O)C3OC(C)=O)nc(SC)[nH]c2=O)c(=O)[nH]1 (centres undefined) | > 100 µM
* CCC1=C(C(C)=O)[C@@H]2CCCCC(C(=O)OC)[C@@H]2C1=O (some centres undefined) | > 100 µM

Below: the item to evaluate.
So, `C=C1c2nc3ccccc3n2C=C(c2ccc(C)cc2)N1c1ccccc1` ? Its TGI was > 100 µM

###

- Test system: HCT-15 colon
- assay.info: NCI tumour cell line growth inhibition, 48 h; in the data active = GI50 below about 0.43 µM; inactive = the rest
Use one of these outcomes when replying: Yes = active, No = inactive

Kindly provide the recorded test outcome for the following compound: `CC(=O)c1c(Nc2cccc(F)c2)[nH]c2c(Cl)cc(Cl)c(Cl)c2c1=O`
Yes

Kindly provide the recorded test outcome for the following compound: `O=C(CN(/C=C/C(=O)C(F)(F)F)c1ccc(Cl)cc1)c1ccc(F)cc1`
No

Kindly provide the recorded test outcome for the following compound: COc1cc(C2CC(c3cccc(Nc4ccncc4)c3)=NN2c2ccccc2)cc(OC)c1OC (stereo not given)
No

Kindly provide the recorded test outcome for the following compound: O=c1ncc(I)cn1C1CC(O)C(CO)O1 (stereo not given)
No

Kindly provide the recorded test outcome for the following compound: `O=C(Nc1ccc(Cl)cc1)Nc1ccc(Cl)c(C(F)(F)F)c1`
No

Kindly provide the recorded test outcome for the following compound: `Cc1oc2c(C(=O)N/N=C\c3ccc(O)cc3O)c[nH]c2c1C`
Yes

Kindly provide the recorded test outcome for the following compound: `c1ccc(CC(Cc2ccccc2)C2=NCCCN2)cc1`
No

Kindly provide the recorded test outcome for the following compound: O=C1C=CC2(O)OC/C(=C\c3ccccc3)C(O)=C2C1=O (stereo not given)
No

Kindly provide the recorded test outcome for the following compound: `Cc1ccc(C2=NN(c3ccc(S(C)(=O)=O)cc3)C(=O)CC2)cc1`
No

Kindly provide the recorded test outcome for the following compound: `Clc1ccc(Cn2c(CN3CCCC3)nc3ccccc32)cc1`
No

###

- System: OVCAR-4 ovarian
- assay.info: NCI tumour cell line growth inhibition, 48 h
# TGI annotations

• CC1CC2(OC2C)C(=O)OC2CCN(C)C/C=C(/COC(=O)C1(C)O)C2=O (centres undefined) = > 100 µM

Below: the item to evaluate.
So, `Cn1c(-c2ccccc2)cc(-c2cccs2)c1-c1ccsc1` ? Its TGI was > 100 µM

###

- Test system: UACC-62 melanoma
- assay.info: NCI tumour cell line growth inhibition, 48 h
experimental.readout: TGI

The following compounds have reported results that may help.
- COC(=O)C1[C@@H](C(=O)OC)C(=O)O[C@H]1c1cc(OC)c(OC)c(OC)c1 (stereo not given in full): > 100 µM
- O=C(NC(=S)Nc1ccc2c(c1)Sc1ccccc1O2)c1ccccc1: > 100 µM
- Nc1nc(Cl)c(N=Nc2ccc(Cl)cc2)c(NCC2(CO)CCC(CCc3ccccc3)C2)n1 (stereo not given): 22.1 µM
- Nc1ncnc2c1ncn2C1CC(O)C(CO)O1 (stereo not given): > 100 µM
- CC(C)N(C(C)C)[PH+]1O[PH+](N(C(C)C)C(C)C)O[PH+](N(C(C)C)C(C)C)O[PH+](N(C(C)C)C(C)C)O1.[C-]#[O+].[C-]#[O+].[C-]#[O+].[C-]#[O+].[C-]#[O+].[C-]#[O+].[C-]#[O+].[C-]#[O+].[Mo].[Mo] (stereo not given): > 100 µM
- C[C@@H](O)CCC(=O)c1ccoc1: > 100 µM
- CC1=C(C(=O)CC(=O)C(=O)Nc2ccc(Cl)cc2C)Sc2ccccc2N1: > 100 µM
- O=C1C(Cl)C2(CC(/C=C/c3cccs3)=NN2c2cccc(S(=O)(=O)O)c2)N1c1nc2ccccc2s1 (stereo not given): > 100 µM

So, Nc1c(C(=O)Nc2cccc(C(F)(F)F)c2)sc2nc3c(cc12)C(O)CCC3 (stereo not given) ? Its TGI was > 100 µM

So, `COc1ccc(/C(Cl)=C(\CN(C)C)c2ccc(OC)c(OC)c2)cc1OC` ? Its TGI was > 100 µM

So, `c1ccc(CC(Cc2ccccc2)C2=NCCCN2)cc1` ? Its TGI was > 100 µM

So, `CN(CCCNC(=O)c1nn(-c2ccccc2)c2c1ccc1ccccc12)CCCNC(=O)c1nn(-c2ccccc2)c2c1ccc1ccccc12` ? Its TGI was 3.03 µM

So, `CCCN1C/C(=C\c2ccc(O)c(OC)c2)C(=O)/C(=C/c2ccc(O)c(OC)c2)C1` ? Its TGI was > 100 µM

So, NC(Cc1ccccc1)P(=O)(O)O (stereo not given) ? Its TGI was > 100 µM
